- target_system: recombinant H9-HA, A/HongKong/1073/99 (H9N2) (Influenza A virus A/Hong Kong/1073/99 …, UniProt Q9ICY5, strain)
- method_description: SPR
- reported_conditions: both partners purified
measurement_kind: binding result

| binder | test_result |
| --- | --- |
| R1a-G6 (VHH, source: E. coli WK6 periplasm, purified (Talon IMAC, Superdex 75 SEC)) VHH: QVQLVESGGGLVQSGGSLRLSCAASGSMSRIITMGWYRQAPGMERELVAVIGNNDNTVYGDSVQGRFTVSRDNAKNTAYLQMNSLNAEDTAMYYCKISTLTPPHEYWGQGTQVTVSS | no binding |
| R2a-E8 (VHH, source: E. coli WK6 periplasm, purified (Talon IMAC, Superdex 75 SEC)) VHH: QLQLVESGGGLVQPGGSLRLSCTASGDIFVMYMIDWYRQAPGKQRELVASIDGRGTPMYADSVKGRFTISRDNAKNTVYLQMNSLKPEDTAVYSCHAKSPLVDNEYWGQGTQVTVSS | no binding |
| R1a-G5 (VHH, source: E. coli WK6 periplasm, purified (Talon IMAC, Superdex 75 SEC)) VHH: QLQLVESGGGLVQPGGSLRLSCAASGSISRIVTMGWYRQASGKERELVAVIGNYGNTNYADSVKGRFTVSRDNAKDTAYLQMNGLNVEDTAIYYCKTSTTTPPYEYWGQGTQVTVSS | no binding |
| R1a-F4 (VHH, source: E. coli WK6 periplasm, purified (Talon IMAC, Superdex 75 SEC)) VHH: QVQLVESGGGLVQPGGSLRLSCAASGSISRIVTMGWYRQGPGKERELVAVIGNYGNTNYADSVKGRFTVSRDNAKDTAYLQMNNLNVEDTAMYYCKCSTTTPPHEFWGQGTQVTVSS | no binding |
